assay: yeast display, Sf9 membrane polyspecificity reagent, FACS + sequencing; frameworks hold sequencing errors
MEASURE NAME: polyreactivity (PSR sort gate)

// solved cases for polyreactivity (PSR sort gate) follow
Enquiry: Quick one: polyreactivity (PSR sort gate) of QVQLVESGGGLVQAGGSLRLSCAASGSTFWYNAMGWYRQAPGKERELVAAISASGGSTYYADSVKGRFTISRDNAKNTVYLQMNSLKPEDTAVYYCAAGSFWGYSRYRTYYGFDYWGQGTQVTVSS ?
Return: high polyreactivity

Enquiry: What do you have for QVQLQESGGGLVQAGGSLLSCAASGTISYYREMGWYRQAPGKERELVAGIGVGTITYYADSVKGRFTISRDNAKNTVYLQMNSLKPEDTAVYYCAALIDGNDSHAYWGQGTQVTVSS ?
Return: low polyreactivity

Enquiry: Same question, QVQLGESGGGLVQAGGSLRLSCAASGFIFGYYAMGWYRQAPGKERELVAAINYNDDSTYYADSVKGRFTISRDNAKNTVYLQMNSLKPEDTAVYYCAAGVWYGYYVSIYLDYDYWGQGTQVTLSS this time
Return: low polyreactivity

Enquiry: Next sequence: QVQLVESGGGLVQAGGSLRLSCAASGIISGEYAMGWYRQAPGKERELVAAIDYSGVSTYYADSVKGRFTISRDNAKNTVYLQMNSLKPEDTAVNYCAAYPSSEYDYWGQGTQVTVSS
Return: low polyreactivity

Enquiry: Do the same for QVQLVESGGGLVQAGGSLRLSCAASGFIFVGNAMGGYRQAPGKERELVAAITSTDNTTYADSVKGRFTISRDNAKNTVYLQMNSLKPEDTAVYYCNARGYPYLYGYDYWGQGTQVTVSS please
Return: low polyreactivity

Let us move to another entry and its polyreactivity (PSR sort gate).
Enquiry: Which polyreactivity (PSR sort gate) value is on record for QVQLVESGGGLVQAGGSLRLSSAASGSTIVLYTMGWYRQAPGKEWELVAAITNGTRTYYADSVKGRFTISRDNAKNTVYLQMNSLKPQDTAVYYCAVDGVKRGADLFYYWGHGTQVTVSS ?
Return: high polyreactivity

---

assay: yeast display, Sf9 membrane polyspecificity reagent, FACS + sequencing; frameworks hold sequencing errors
MEASURE NAME: polyreactivity (PSR sort gate)

Enquiry: So what's the measured polyreactivity (PSR sort gate) for this one? QVQLVEAGGGLVQAGGSLRLSCAASGRISYTYAMGWYRQAPGNERELVAAITDGGSTTYADSVKGRFTISRDNAKNTVYLQMNSLKPEDTAVYYCNADTDSAKSPAYYYWGQGTQVTVSS
Return: low polyreactivity

Enquiry: Try this sequence too: QVQLVESGGGLVQAGGSLRLSCAASGSIFKVYAMGWYRQAPGKERELVAAISRGGSTYADSVKGRFTISRDNAKNTVYLQMISLKPEDTAVYYCNATVGRIYVTRYDYWGQGTQVTVSS
Return: high polyreactivity

Enquiry: Now consider QVQLVESGGGLVQAGGSLRLSCAASGRTFAPYAMGWYRQAPGKERELVAAIRWTGTSTYYADSVKGRFTISRDNAKNTVYLQMNSLKPEDTAVYYCNADLYNREGWGQGTQVTVSS .
Return: high polyreactivity

Enquiry: Cool, now QVQLVESGGGLVQAGGSLRLSCAASGGIFYTYAMGWYRQAPGKEREFVAAISRRGSSTYYADSVKGRFTISRDNEKNTVYLQMNSLKPEDTAVYYCAKSYAPYSYANNDYWGQGTQVTVSS
Return: low polyreactivity

Next up:
Enquiry: Which polyreactivity (PSR sort gate) value belongs to QVQLLETGRGLVQAGGSLRLSCAPSGITFRYYAMGWYRQAPGQERELVAAITRSGGSTYYADSVKGRFTLSRYNAKNTVYLQMNSLKPEDTAVYYCAAQPVSRHTGTFYRSNGYDYWGQVTQVTVSS ?
Return: high polyreactivity

---

test: yeast display, Sf9 membrane polyspecificity reagent, FACS + sequencing; frameworks hold sequencing errors
MEASURE NAME: polyreactivity (PSR sort gate)

These solved cases illustrate the format of a correct answer.
Enquiry: Please report the recorded polyreactivity (PSR sort gate) for QVQLVESGGGLVQAGGSLRLSCAASGRIFQHNTMGWYRQAPGKERELVAAITRGGRTNYADSVKGRFTISRDNAKNTVYLQMNSLKPEDTAVYYCAARYVERHTDYYYWGQGTQVTVSS .
Return: low polyreactivity

Enquiry: Entry QVQLVETGGGLDQAGGSLRLSCAASGRTFLLYAMGWYRQAPGKERELVARITGRGGRTYYADSVKGRFTISRDNAKNTVYLQMNSLKPEDTAVYYCNAKGYQGQWERYDYWGQGTEVTVSS please
Return: high polyreactivity

Enquiry: Follow-up entry: QVQLVESGGGLVQAGGSLRLSCAASGRIFTTYTMGWYRQAPGKERELVAAISKRGGSTYYADSVKGRFTISRDNAKNTVYLQMNSLKPEDTAVYYCAAVGGRFFAPYIWSVDSYDYWGQGTQVTVSS
Return: high polyreactivity

Enquiry: Please give the result for QVQLVEAGGGLVQAGVSLRLSCAASGIIFGSYAMGWYRQAPGKERELVATISYDGGSTYYADSVKGRFTISRDNAKNTVYLQMKSLKPDDTAVSYCAAVYQSWFGLRSYYYWGQGTQVTVSS too.
Return: high polyreactivity

Enquiry: Then what about the sequence QVQLVESGGGLVQAGGSLRLSCAASGSIFVRNAMGWYRQAPGKEREFVATITSSGGTTYYADSVKGRFTISRDNAKNTVYLQMNSLKPDDTAVYYCNADAGWYDWVYYVGRDYWGQGTQVTVSS ?
Return: low polyreactivity

Enquiry: What do you get for QVQLVESGGGIVQAGGSLRLSCAASGITFGRYVMGWYRQAPGKERELVAAISRSGGSTYYADSVKGRFTISRDNAKNTVYLQMNSLKPEDTAVYYCAADLRQTGYGWYDYWGQGTQVTVSS ?
Return: high polyreactivity

Next up:
Enquiry: What measured polyreactivity (PSR sort gate) goes with QVHLVESGGGLLQAGGSLRLSCAASGTIYGVYAMGWYRQAPEKEGELVAAISWTDGTTYYADSVKGRFTISRDNAKNTVYLQINSLKPEDTAVYYCAAEADVPPYLFGYWGQGTQVTVSS ?
Return: high polyreactivity

---

assay: yeast display, Sf9 membrane polyspecificity reagent, FACS + sequencing; frameworks hold sequencing errors
MEASURE NAME: polyreactivity (PSR sort gate)

Enquiry: I'd like to know its polyreactivity (PSR sort gate). The sequence in question is QVQLVESGGGLDQAGGSLRLSCAASGIIFWYNARGWYRQAPGKERELVAAINYGGSTNYADSVKGRFTISRDNAKNTVYLQMNSLKQEDTAVDYCNADRSVIHRGYIWQPGRNDYWGQGTQVNVSS
Return: low polyreactivity

Enquiry: Repeat for the following sequence: QVQLVESGGGLVQAGGSLRLSCAASGFIFSRYAMGCYRQSPGKERELVATIRRSGRTNYADSVKGRFTISRDNAKNTFYLQMNSLKPEDTAVYYCAKPGQWHRYHYGSWGQGTQVTVSS
Return: low polyreactivity

---

test: yeast display, Sf9 membrane polyspecificity reagent, FACS + sequencing; frameworks hold sequencing errors
MEASURE NAME: polyreactivity (PSR sort gate)

// solved cases for polyreactivity (PSR sort gate) follow
Enquiry: Would you kindly share the measured polyreactivity (PSR sort gate) for QFQLVESGGGLVQAGGSLRLSCAASGSTFYANAMGLYRQAPGKERELVAAISYSGGSTYYADSVKGRFTISRDNAKNTVYLQMNSLKPEDTAVYYCAATNGKKTPKVYYWGQGTQVTVSS ?
Return: low polyreactivity

Enquiry: Here is the next sequence: QVQLVESGGGLVQAGGSLRLSCAASGSIFWQNTMGWYRQAPGKERELVAAISWSGGRTYYADSVKGRFTISRDNAKNTVSLPMNSLKPEDTAVYYCNKLLSQRRYHSEMDYWGQGTQVTVSS
Return: high polyreactivity

Enquiry: Do the same for QVQLVESGGGLVQAGGSLRLSCAASGRIFRSYAMGWYRQAPGKDRELVAAISSGDTTNYADSVKGRFTISRDNAKNTVYLQMNSLKPEDTAVYYCAAGFYYRGGYIQYEMNYWGQGTQVTVSS please
Return: high polyreactivity

Enquiry: Further, for QVQLLQSGGGLVQAGGSLRLSCAASGFIFLGYAMGWYRQAPGNERELVAAISENSGTTSYADSVKGRFTISRDNAKNTVYLQMNSLKPEDTAVYYCAADSIGNYLLYDYWGQGTQVTVSS ?
Return: low polyreactivity

Next:
Enquiry: Report polyreactivity (PSR sort gate) for QVQLVESGGGLVQAGGSLRLSCAASGITFIYYAMGWYRQAPGKERELVAAISKSGGRTYYADSVKGRFTISRDNAKNTVYLQMNSLKPEDTAVYYCNKLVGDDTALYDYWGQGTQVTVSS please.
Return: high polyreactivity

Enquiry: Subsequent entry: QVHLVESGGGLVQAGGSLRLSCAASGRTIRLNVMGWYRQAPGKERELVAAITRSVGSTYYADSVKGRFTISRDYAKNTVYLQMNSLKPEDTAVYYCNAVRSRYYDDYDYWGQGTQVTVSS
Return: high polyreactivity
